study.system: F508delCFTR (Homo sapiens, UniProt P13569, DEL508-508)
Construct: expressed in transfected cells; host or cells: CFBE41o- human lung-derived epithelial cells (CFBE4lo-F508delCFTR-HRP), doxycycline-inducible
Sequence (P13569 with tags, fused parts or gaps DEL508-508): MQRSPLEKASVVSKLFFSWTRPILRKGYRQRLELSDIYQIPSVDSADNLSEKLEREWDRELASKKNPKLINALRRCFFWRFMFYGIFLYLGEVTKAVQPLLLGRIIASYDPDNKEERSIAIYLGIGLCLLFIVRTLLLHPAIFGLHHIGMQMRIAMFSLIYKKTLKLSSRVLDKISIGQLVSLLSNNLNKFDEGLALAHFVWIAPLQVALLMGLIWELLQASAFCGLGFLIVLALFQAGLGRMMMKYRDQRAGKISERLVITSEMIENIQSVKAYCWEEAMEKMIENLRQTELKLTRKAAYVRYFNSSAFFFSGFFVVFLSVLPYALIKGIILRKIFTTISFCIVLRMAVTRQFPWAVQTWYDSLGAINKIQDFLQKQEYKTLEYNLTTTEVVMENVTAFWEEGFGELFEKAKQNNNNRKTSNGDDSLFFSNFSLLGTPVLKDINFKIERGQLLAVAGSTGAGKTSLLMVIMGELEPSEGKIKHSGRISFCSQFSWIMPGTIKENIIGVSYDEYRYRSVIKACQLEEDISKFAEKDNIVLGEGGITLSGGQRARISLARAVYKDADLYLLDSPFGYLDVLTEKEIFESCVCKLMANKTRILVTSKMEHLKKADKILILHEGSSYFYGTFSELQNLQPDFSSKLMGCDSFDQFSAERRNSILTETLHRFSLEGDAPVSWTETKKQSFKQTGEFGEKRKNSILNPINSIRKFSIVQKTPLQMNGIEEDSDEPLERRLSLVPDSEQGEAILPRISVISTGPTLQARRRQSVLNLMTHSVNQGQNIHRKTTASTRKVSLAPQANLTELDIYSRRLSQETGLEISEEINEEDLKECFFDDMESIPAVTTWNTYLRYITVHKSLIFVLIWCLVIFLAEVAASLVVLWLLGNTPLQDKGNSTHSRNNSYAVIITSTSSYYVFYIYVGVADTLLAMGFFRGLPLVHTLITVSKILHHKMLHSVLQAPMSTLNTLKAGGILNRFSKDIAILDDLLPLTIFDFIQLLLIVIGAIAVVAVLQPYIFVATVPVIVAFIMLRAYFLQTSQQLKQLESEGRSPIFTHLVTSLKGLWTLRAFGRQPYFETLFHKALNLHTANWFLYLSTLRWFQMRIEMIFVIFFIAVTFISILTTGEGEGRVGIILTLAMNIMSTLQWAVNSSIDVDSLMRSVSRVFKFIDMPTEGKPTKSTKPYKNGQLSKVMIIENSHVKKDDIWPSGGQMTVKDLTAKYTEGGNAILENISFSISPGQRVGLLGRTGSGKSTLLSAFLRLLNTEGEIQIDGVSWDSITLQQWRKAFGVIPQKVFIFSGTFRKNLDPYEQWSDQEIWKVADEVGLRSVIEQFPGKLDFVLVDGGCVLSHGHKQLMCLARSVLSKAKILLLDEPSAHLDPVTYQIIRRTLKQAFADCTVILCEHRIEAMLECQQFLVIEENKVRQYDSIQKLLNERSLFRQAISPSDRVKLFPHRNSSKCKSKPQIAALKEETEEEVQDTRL
method.description: Cell Surface Expression-Horse Radish Peroxidase (CSE-HRP) Assay
Assay type: cell-based
test.parameters: test compound without co-corrector; read-out: EC50 (without co-corrector)
Please go through the items and note down their EC50.

Before answering, review these 4 worked examples.
>  <compound>
CC(C)(C)[C@H]1[C@H](NCc2ccc3occc3c2)[C@H](c2ccccc2)N(C(=O)C2CCCCC2)[C@@H]1C(=O)O [III-135]

>  <recorded.result>
> 10 µM

$$$$
>  <compound>
COC(=O)N1[C@H](C(=O)O)[C@@H](C(C)(C)C)[C@H](NCc2cc(C(C)(C)C)ccc2OC)[C@@H]1c1ccccc1 [II-388]

>  <recorded.result>
1 to 10 µM

$$$$
>  <compound>
COc1cccc([C@@H]2[C@H](NCc3ccccc3OC(F)F)[C@@H](C(C)(C)C)[C@H](C(=O)O)N2C(=O)N(C(C)C)C(C)C)n1 (racemic) [III-59]

>  <recorded.result>
> 10 µM

$$$$
>  <compound>
CC(C)(C)[C@H]1[C@H](NCc2ccc(F)c(C#N)c2)[C@H](c2ccccc2)N(C(=O)C2CCCCC2)[C@@H]1C(=O)O [III-125]

>  <recorded.result>
> 10 µM

$$$$

For each of the compounds below, state EC50.
1. COc1ccc(OC(F)(F)F)cc1CN[C@H]1[C@H](C(C)(C)C)[C@@H](C(=O)O)N(C(=O)OC(C)C)[C@H]1c1cccnc1N(C)C [II-552]
2. COCCOc1ccc(C(F)(F)F)cc1CN[C@@H]1[C@@H](C(C)(C)C)[C@H](C(=O)O)N(C(=O)C2CCCCC2)[C@@H]1c1ccccc1 (racemic) [III-64]
3. CC(C)(C)[C@@H]1[C@@H](NCc2ccc(Cl)cc2Cl)[C@@H](c2ccccc2)N(C(=O)CC2CCCC2)[C@H]1C(=O)O (racemic) [III-3]

Result:
1. 1 to 10 µM
2. 1 to 10 µM
3. > 10 µM

For every item in the list below, what is its measured EC50?
1. COc1ccc(C(C)(C)C)cc1CN[C@H]1[C@H](C(C)(C)C)[C@@H](C(=O)O)N(C(=O)C2CCCCO2)[C@H]1c1ccccc1C(C)C (relative stereo) [Example 62]
2. COc1ccc2c(C)cc(N[C@H]3[C@H](C(C)(C)C)[C@@H](C(=O)O)N(C(=O)C4CCCCC4)[C@H]3c3ccccc3)nc2c1 [III-151]
3. COc1ccc(C(C)(C)C)cc1CN[C@H]1[C@H](C(C)(C)C)[C@@H](C(=O)O)N(C(=O)OC2CCCC2)[C@H]1c1ccccc1 [Example I-119]

Result:
["< 1 µM", "1 to 10 µM", "1 to 10 µM"]

Working through the 2 compounds below one at a time, give EC50 for each.
1. COc1ccc(-c2ccccc2)cc1CN[C@H]1[C@H](C(C)(C)C)[C@@H](C(=O)O)N(C(=O)OC(C)C)[C@H]1c1cccnc1N(C)C [II-547]
2. COc1ccc(C(F)(F)F)cc1CN[C@H]1[C@H](C(C)(C)C)[C@@H](C(=O)O)N(C(=O)[C@H](C)c2ccccc2)[C@H]1c1cccnc1OC [II-541]

Result:
1 to 10 µM
1 to 10 µM
